# Tested On: F508delCFTR (Homo sapiens, UniProt P13569, DEL508-508)
# Construct: expressed in transfected cells; host or cells: CFBE41o- human lung-derived epithelial cells (CFBE4lo-F508delCFTR-HRP), doxycycline-inducible
# Sequence (P13569 with tags, fused parts or gaps DEL508-508): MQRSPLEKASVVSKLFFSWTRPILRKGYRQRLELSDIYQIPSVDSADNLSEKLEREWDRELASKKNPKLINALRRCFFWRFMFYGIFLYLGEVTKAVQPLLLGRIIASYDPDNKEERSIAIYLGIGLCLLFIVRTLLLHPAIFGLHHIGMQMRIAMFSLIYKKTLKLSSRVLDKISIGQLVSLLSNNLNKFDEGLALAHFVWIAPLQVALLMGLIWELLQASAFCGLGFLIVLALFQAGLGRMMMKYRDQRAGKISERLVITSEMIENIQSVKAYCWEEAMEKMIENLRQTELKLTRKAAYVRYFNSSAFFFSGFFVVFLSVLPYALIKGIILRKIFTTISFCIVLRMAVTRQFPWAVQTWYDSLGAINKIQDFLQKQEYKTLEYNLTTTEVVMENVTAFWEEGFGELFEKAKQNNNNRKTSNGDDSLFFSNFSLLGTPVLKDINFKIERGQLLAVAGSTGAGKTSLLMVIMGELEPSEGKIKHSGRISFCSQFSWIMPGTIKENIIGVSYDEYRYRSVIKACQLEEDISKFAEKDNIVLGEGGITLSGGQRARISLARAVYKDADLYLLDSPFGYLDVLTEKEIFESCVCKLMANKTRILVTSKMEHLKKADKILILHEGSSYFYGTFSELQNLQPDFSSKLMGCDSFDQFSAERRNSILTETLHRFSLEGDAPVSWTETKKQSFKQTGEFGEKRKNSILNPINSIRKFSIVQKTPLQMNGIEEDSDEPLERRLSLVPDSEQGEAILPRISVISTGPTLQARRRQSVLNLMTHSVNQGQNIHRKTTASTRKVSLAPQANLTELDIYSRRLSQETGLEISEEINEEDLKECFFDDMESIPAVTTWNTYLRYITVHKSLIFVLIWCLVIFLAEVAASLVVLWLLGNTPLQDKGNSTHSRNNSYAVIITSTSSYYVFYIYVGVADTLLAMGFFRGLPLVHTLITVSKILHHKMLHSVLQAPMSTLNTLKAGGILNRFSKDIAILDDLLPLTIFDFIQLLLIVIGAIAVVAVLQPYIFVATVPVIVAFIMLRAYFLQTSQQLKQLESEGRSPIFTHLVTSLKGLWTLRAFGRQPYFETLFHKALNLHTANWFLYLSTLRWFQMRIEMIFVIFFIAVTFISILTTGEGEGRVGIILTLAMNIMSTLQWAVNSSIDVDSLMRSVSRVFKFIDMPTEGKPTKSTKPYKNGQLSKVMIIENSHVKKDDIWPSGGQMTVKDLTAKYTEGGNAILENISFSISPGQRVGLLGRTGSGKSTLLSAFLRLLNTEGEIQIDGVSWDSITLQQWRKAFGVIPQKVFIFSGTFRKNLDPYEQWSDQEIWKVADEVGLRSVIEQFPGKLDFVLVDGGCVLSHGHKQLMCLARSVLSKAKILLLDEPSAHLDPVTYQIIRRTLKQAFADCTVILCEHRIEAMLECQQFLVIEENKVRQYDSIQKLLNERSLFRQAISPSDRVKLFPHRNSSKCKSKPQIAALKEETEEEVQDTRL
# Assay Overview: Cell Surface Expression-Horse Radish Peroxidase (CSE-HRP) Assay;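 also: percent of the 2 µM on-plate positive control corrector response above DMSO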
# Assay type: cell-based
# Measurement Parameters: test compound without co-corrector; maximum at any tested concentration, normalized to on-plate positive control; read-out: Maximum % activity (without co-corrector)
We begin with a simple list: items and their reported Emax.
Quantity Measured: Emax

- Compound Structure: "COc1ccc(C23CC(C2)C3)cc1CN[C@H]1[C@H](C(C)(C)C)[C@@H](C(=O)O)N(C(=O)[C@@H]2CCC[C@@H](OC)C2)[C@H]1c1ccccc1"
  Tested On: "F508delCFTR (Homo sapiens, UniProt P13569, DEL508-508)"
  Recorded Value: "> 200%"
- Compound Structure: "COc1ccc(OC(F)(F)F)cc1CN[C@H]1[C@H](C(C)(C)C)[C@@H](C(=O)O)N(C(=O)OC(C)C)[C@H]1c1cccnc1N(C)C"
  Tested On: "F508delCFTR (Homo sapiens, UniProt P13569, DEL508-508)"
  Recorded Value: "> 200%"
- Compound Structure: "COc1ccc(C(F)(F)F)cc1CN[C@@H]1[C@@H](C(C)(C)C)[C@H](C(=O)O)N(C(=O)C2CCCCC2)[C@H]1c1ccccc1"
  Tested On: "F508delCFTR (Homo sapiens, UniProt P13569, DEL508-508)"
  Recorded Value: "< 100%"
- Compound Structure: "COc1nnc(C2CCC2)cc1CN[C@H]1[C@H](C(C)(C)C)[C@@H](C(=O)O)N(C(=O)C2CCCCC2)[C@H]1c1ccccc1"
  Tested On: "F508delCFTR (Homo sapiens, UniProt P13569, DEL508-508)"
  Recorded Value: "< 100%"
- Compound Structure: "COc1ncc(N2CCCC2)cc1CN[C@H]1[C@H](C(C)(C)C)[C@@H](C(=O)O)N(C(=O)OC(C)C)[C@H]1c1cccnc1N(C)C"
  Tested On: "F508delCFTR (Homo sapiens, UniProt P13569, DEL508-508)"
  Recorded Value: "100 to 200%"
- Compound Structure: "COc1ccc(C23CC(C2)C3)cc1CN[C@H]1[C@H](C(C)(C)C)[C@@H](C(=O)O)N(C(=O)C2CCCCC2)[C@H]1c1ccccc1F"
  Tested On: "F508delCFTR (Homo sapiens, UniProt P13569, DEL508-508)"
  Recorded Value: "> 200%"
